tested_on: UniProt Q12809
Sequence (Q12809 whole entry): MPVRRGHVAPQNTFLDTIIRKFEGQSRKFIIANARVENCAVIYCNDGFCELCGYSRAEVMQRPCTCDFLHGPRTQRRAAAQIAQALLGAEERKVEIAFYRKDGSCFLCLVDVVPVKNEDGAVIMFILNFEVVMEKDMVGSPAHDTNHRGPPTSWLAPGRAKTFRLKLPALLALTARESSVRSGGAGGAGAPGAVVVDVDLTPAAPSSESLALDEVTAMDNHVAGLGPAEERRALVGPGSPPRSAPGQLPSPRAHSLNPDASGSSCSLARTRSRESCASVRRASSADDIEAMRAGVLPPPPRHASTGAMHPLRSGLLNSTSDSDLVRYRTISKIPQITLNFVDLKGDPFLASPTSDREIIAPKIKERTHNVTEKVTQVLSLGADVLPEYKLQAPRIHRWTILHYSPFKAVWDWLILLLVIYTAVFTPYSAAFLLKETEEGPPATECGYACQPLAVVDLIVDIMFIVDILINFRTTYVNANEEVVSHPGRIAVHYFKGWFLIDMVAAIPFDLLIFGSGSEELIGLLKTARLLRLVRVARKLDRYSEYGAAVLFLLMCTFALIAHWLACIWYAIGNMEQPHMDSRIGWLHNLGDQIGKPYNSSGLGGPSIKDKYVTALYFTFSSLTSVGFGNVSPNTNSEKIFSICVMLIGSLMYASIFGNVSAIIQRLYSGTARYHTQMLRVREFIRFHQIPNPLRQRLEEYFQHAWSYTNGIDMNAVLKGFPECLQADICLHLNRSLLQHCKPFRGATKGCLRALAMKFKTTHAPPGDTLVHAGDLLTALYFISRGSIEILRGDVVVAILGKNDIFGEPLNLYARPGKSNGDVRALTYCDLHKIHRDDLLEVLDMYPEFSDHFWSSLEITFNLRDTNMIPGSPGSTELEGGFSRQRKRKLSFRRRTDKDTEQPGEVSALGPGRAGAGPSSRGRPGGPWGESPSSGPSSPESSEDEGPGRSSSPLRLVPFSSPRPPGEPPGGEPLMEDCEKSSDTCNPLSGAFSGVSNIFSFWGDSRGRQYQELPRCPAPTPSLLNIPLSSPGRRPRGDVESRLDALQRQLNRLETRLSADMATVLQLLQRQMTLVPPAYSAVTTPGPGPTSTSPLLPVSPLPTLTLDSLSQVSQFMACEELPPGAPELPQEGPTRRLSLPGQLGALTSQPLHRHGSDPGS
protocol: Inhibition of human ERG expressed in CHO cells at -80 mV holding potential after 3 mins by QPatch test
Format: cell-based
measured_attribute: IC50 (µM)
Give bare numbers, in µM.

Please fill in: IC50 reported for CN(C/C=C/c1ccc(C(F)(F)F)cc1)Cc1cccc2ccoc12.Cl = 3.7

* * *

protocol: Clearance in Sprague-Dawley rat at 5 mg/kg, iv administered as single dose by LC-MS/MS analysis
Type: ADME, organism-based
condition_context: in vivo
measured_attribute: clearance

Short answer for CN(C/C=C/c1ccc(-c2ccccc2)cc1)Cc1coc2ccccc12.Cl : clearance was 29.2 mL/min/kg

* * *

protocol: Inhibition of CrtN in methicillin-resistant Staphylococcus aureus NRS271 assessed as reduction in staphyloxanthin levels after 48 hrs by spectrophotometric method-based pigment inhibition assay
measured_attribute: IC50 (nM)
Give bare numbers, in nM.

// below: answered compounds
{"query_smiles": "CN(C/C=C/c1ccc(-c2ccccc2)cc1)Cc1cccc2cc[nH]c12.Cl", "IC50 / nM": 10.1}
{"query_smiles": "CN(C/C=C/c1ccc(-c2ccccc2)cc1)Cc1coc2ccccc12.Cl", "IC50 / nM": 5.6}

Shifting focus to the compound that follows.
Noted for CN(C/C=C/c1ccc(C(F)(F)F)cc1)Cc1cccc2ccoc12.Cl : its IC50 reads 6.7
